target: monoclonal antibody mAB 198; test: peptide microarray, fluorescence, linear peptide
Labelling field: enter y if recorded relative signal [%] is less than 8%. Enter n if it equals or exceeds that cut-off.

Sample answers from the record:
binder	category
DVRLRINPADY	n
VDYNLKFNP	y
LRPNPADYG	y
GGGSLRFNP	n
RYNPADY [RYNPADY, linear mimotope]	n
LRWNPADYHGI	y

Now for a further binder.
Task item: Lab note: relative signal [%] threshold 8%. Does this binder come in strictly under it? `RLRVNPADY`
Reply: n

Data provenance: patent US20230381328A1
